target: Z-AAT (Homo sapiens, UniProt P01009, E366K); construct: Purified Z-AAT protein from human plasma; Vertex Cambridge Sample 4942); assay: Biochemical Assay (Z-AAT Elastase Activity Assay); details: purified Z-AAT protein from human plasma and purified human neutrophil elastase
Sequence (P01009 25-418 E366K): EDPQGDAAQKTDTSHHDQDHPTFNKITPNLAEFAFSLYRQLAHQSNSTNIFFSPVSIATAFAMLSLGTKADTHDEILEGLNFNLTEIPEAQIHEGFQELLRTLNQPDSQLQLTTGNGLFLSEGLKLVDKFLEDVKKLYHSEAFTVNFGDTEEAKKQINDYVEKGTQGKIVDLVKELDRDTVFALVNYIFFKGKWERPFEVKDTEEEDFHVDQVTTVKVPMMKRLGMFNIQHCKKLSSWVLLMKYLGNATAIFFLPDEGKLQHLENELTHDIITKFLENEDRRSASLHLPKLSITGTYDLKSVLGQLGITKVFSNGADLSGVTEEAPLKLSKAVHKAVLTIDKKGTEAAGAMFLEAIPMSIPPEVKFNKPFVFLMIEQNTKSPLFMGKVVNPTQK
PARAMETER: IC50

query: What does the record list as IC50 for COc1c(C)cc(-c2c(C(C)C)n(-c3ccc(F)cc3)c3cc4cn[nH]c4cc23)cc1C(=O)O ?
result: > 30 µM

query: What does the record list as IC50 for COCC(C)(C)c1c(-c2cnn(CC(O)CO)c2)c2cc3[nH]ncc3cc2n1-c1ccc(F)cc1 (stereo not shown) ?
result: > 1 µM

query: What does the record list as IC50 for Cc1cc(-c2c(C3CCOCC3)n(-c3ccc(F)cc3)c3cc4cn[nH]c4cc23)cnc1C(=O)O ?
result: > 30 µM

query: What does the record list as IC50 for CC(c1ccccc1F)n1c(C(C)(C)CC#N)c(-c2ccc(C(=O)O)cc2)c2cc3[nH]ncc3cc21 (racemic) ?
result: > 1 µM
